- target.under.test: HsATC (Homo sapiens, UniProt P27708)
- Construct: ATCase domain of CAD; made in house; host or cells: E. coli BL21 star
- Sequence (P27708 1918-2225 limits assumed): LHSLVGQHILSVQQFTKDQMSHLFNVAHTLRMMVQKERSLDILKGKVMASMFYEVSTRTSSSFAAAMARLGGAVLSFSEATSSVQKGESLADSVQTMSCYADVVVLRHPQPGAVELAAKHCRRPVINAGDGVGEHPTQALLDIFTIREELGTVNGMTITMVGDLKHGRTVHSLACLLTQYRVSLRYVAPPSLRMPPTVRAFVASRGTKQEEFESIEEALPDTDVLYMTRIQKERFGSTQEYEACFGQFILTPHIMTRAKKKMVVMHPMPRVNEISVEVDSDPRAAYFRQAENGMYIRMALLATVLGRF
- protocol.details: HsATC activity assay
- Type: biochemical
- condition.label: in vitro activity assay, 10 mM L-aspartate, 5 mM carbamoyl phosphate; read-out: HsATC IC50
Measured pIC50 values are reported for all entries that follow.
# pIC50 is unitless: minus log10 of the molar concentration; print number only

Here is how some compounds turned out for pIC50.
CC(C)(C)OC(=O)Nc1sc(-c2cnc(N)nc2)cc1C(=O)NCCc1ccc(O)cc1    6.63
CC(C)(C)OC(=O)Nc1sc(-c2ccccc2)cc1C(=O)Nc1ccc(N2CCOCC2)c(F)c1    6.46
COC(=O)c1c(N)sc2c1CCC(c1ccccc1)C2 (stereo not shown)    6.12
CC(C)(C)OC(=O)Nc1sc(-c2ccccc2)cc1C(=O)NCC(=O)c1ccccc1    6.43
CC(C)(C)OC(=O)Nc1oc(-c2ccc(Cl)cc2)cc1C(=O)NCCc1ccc(O)cc1    6.08
COC(=O)c1c(NC(=O)OC(C)(C)C)sc2c1CCC(c1ccccc1)C2 (stereo not shown)    5.29
CC(C)(C)OC(=O)Nc1sc(-c2ccccc2)c(-c2ccccc2)c1C(=O)NCCc1ccc(O)cc1    5.98
CC(C)(C)OC(=O)NCC1CCN(C(=O)c2cc(-c3ccccc3)sc2NC(=O)OC(C)(C)C)CC1    6.71
COc1cccc(CCNC(=O)c2cc(-c3ccccc3)sc2NC(=O)OC(C)(C)C)c1    6.50
Nc1sc(-c2ccccc2)cc1C(=O)NCCc1ccc(S(N)(=O)=O)cc1    6.94

Entry `CC(C)(C)OC(=O)Nc1sc(-c2ccccc2)cc1C(=O)NCCN1CCOCC1` — recorded pIC50 = 6.42

Entry `CC(C)(C)OC(=O)Nc1sc2c(c1C(=O)NCCc1ccc(O)cc1)CCCC2` — recorded pIC50 = 5.68

Entry `CC(C)(C)OC(=O)Nc1sc(-c2ccc(F)cc2)cc1C(=O)NCCc1ccc(O)cc1` — recorded pIC50 = 6.80

Entry `CC(C)(C)OC(=O)Nc1sc(-c2cccc(C=O)c2)cc1C(=O)NCCc1ccc(O)cc1` — recorded pIC50 = 6.90

Entry `CC(C)(C)OC(=O)NCC(=O)Nc1sc(-c2ccccc2)cc1C(=O)NCCc1ccc(O)cc1` — recorded pIC50 = 6.51

Entry `COC(=O)c1cc(-c2ccc3c(c2)OCCO3)sc1NC(=O)OC(C)(C)C` — recorded pIC50 = 5.99

Entry `Nc1sc(-c2ccccc2)cc1C(=O)NCCc1ccc(F)cc1` — recorded pIC50 = 6.13

Entry `CC(C)(C)OC(=O)Nc1sc(-c2ccc(Cl)c(Cl)c2)cc1C(=O)NCCc1ccc(O)cc1` — recorded pIC50 = 6.26

Entry `Nc1sc(-c2ccccc2)cc1C(=O)NCCc1ccccc1` — recorded pIC50 = 6.12

// provenance: paper PMC9585585
